# Tested on: giant foxtail (Setaria faberii)
# Protocol Description: Test A preemergence, visual injury rating
# Format: in vivo
# Conditions: 31 g ai/ha, 0 to 100 scale, 0 no effect, 100 complete control
Quantity Measured: Plant response rating, Foxtail, Giant
Answer with a number only.

Some solved cases for reference:
Compound	Plant response rating, Foxtail, Giant
O=C(CCCC(F)(F)F)c1c(Cl)cccc1Oc1ncc(Cl)cn1 [Compound 143]	100
CCCSC(=O)c1c(Br)cccc1Oc1ncc(Cl)cn1 [Compound 70]	0
N#Cc1cccc(Oc2ncc(Cl)cn2)c1C(=O)CCCCC(F)(F)F [Compound 109]	0

Moving on to another compound below.
Lookup: Param item = N#Cc1cccc(Oc2ncc(Cl)cn2)c1COCC(F)(F)F [Compound 131] ; retrieve measured Plant response rating, Foxtail, Giant.
Found: 0

* * *

# Test system: foxtail, giant (giant foxtail, Setaria faberii)
# Protocol Description: Test C postemergence, plant response rating
# Type: in vivo
# Conditions: 125 g ai/ha, scale 0 to 100 (0 no effect, 100 complete control)
Quantity Measured: Foxtail, Giant plant response rating

Consider the worked cases shown below.
Molecule	Target System	Quantity Measured	Result
N#Cc1cccc(Oc2ncc(Cl)cn2)c1COCCC(F)(F)F [Compound 80]	foxtail, giant (giant foxtail, Setaria faberii)	Foxtail, Giant plant response rating	15
O=C(CCC(F)(F)F)c1c(Br)cccc1Oc1ncc(Cl)cn1 [Compound 92]	foxtail, giant (giant foxtail, Setaria faberii)	Foxtail, Giant plant response rating	50
O=C(CCCC(F)(F)F)c1c(Oc2ncc(Cl)cn2)cccc1C(F)(F)F [Compound 125]	foxtail, giant (giant foxtail, Setaria faberii)	Foxtail, Giant plant response rating	25
CCCC(=O)c1c(Oc2ncc(Cl)cn2)cccc1C(F)(F)F [Compound 136]	foxtail, giant (giant foxtail, Setaria faberii)	Foxtail, Giant plant response rating	25
CCCC(=O)c1c(Br)cccc1Oc1ncc(Cl)cn1 [Compound 75]	foxtail, giant (giant foxtail, Setaria faberii)	Foxtail, Giant plant response rating	25
O=C(OCC(F)(F)F)c1c(Br)cccc1Oc1ncc(Cl)cn1 [Compound 35]	foxtail, giant (giant foxtail, Setaria faberii)	Foxtail, Giant plant response rating	20

Next molecule, please.
Lookup: Item FC(F)(F)CCCCc1c(Cl)cccc1Oc1ncc(Cl)cn1 [Compound 137] has what recorded Foxtail, Giant plant response rating?
Found: 35

* * *

# Test system: giant foxtail (Setaria faberii)
# Protocol Description: Test A postemergence, visual injury rating
# Assay type: in vivo
# Conditions: 500 g ai/ha, 0 is no effect, 100 is complete control
Quantity Measured: Foxtail, Giant plant response rating (0 to 100 scale)
Give only the figure.

Use these answered entries as a reference point.
Molecule	Recorded Number
O=C(SCC(F)(F)F)c1c(Br)cccc1Oc1ncc(Cl)cn1	60
N#Cc1cnc(Oc2cccc(Br)c2C(=O)OCC(F)(F)F)nc1	0
O=C(OCC1CC1(F)F)c1c(Br)cccc1Oc1ncc(Cl)cn1 (centres unmarked)	100
CCCC(=O)c1c(Br)cccc1Oc1ncc(Cl)cn1	100

Lookup: Which Foxtail, Giant plant response rating (0 to 100 scale) reading was recorded for the molecule N#Cc1cccc(Oc2ncc(Cl)cn2)c1C(=O)OCC(F)(F)F ?
Found: 0

Lookup: Same again, this time with CCSC(=O)c1c(Br)cccc1Oc1ncc(Cl)cn1
Found: 80

Lookup: Next entry: O=C(OCC1CCC1)c1c(Br)cccc1Oc1ncc(Cl)cn1
Found: 60

Lookup: Also, CCC(C)OC(=O)c1c(Br)cccc1Oc1ncc(Cl)cn1 (centres unmarked) please.
Found: 60

* * *

Entries annotated with measured Corn plant response rating (crop injury, 0 = no effect, 100 = complete kill) at 31 g/ha
# Test system: corn (Zea mays)
# Protocol Description: Test C postemergence, plant response rating
# Format: in vivo
# Conditions: Zea mays, post-emergence, 31 g ai/ha, scale 0 to 100
Give just the number in %; leave the unit off.

# example entries with known answers
Compound	Recorded Number
O=C(OCCCC(F)(F)F)c1c(Br)cccc1Oc1ncc(Cl)cn1	10
CCCOC(=O)c1c(Br)cccc1Oc1ncc(Cl)cn1	5
CC(CC(F)(F)F)OC(=O)c1c(Br)cccc1Oc1ncc(Cl)cn1 (stereo not shown)	15

Now for the compound whose Corn plant response rating (crop injury, 0 = no effect, 100 = complete kill) at 31 g/ha we want.
Lookup: # input compound: C=CCCOC(=O)c1c(Br)cccc1Oc1ncc(Cl)cn1 ; wanted: its Corn plant response rating (crop injury, 0 = no effect, 100 = complete kill) at 31 g/ha
Found: 5

* * *

# Test system: soybean (Glycine max)
# Protocol Description: Test C postemergence, plant response rating
# Format: in vivo
# Conditions: 125 g ai/ha, scale 0 to 100 (0 no effect, 100 complete control)
Quantity Measured: Soybean plant response rating

Lookup: Requested read-out: Soybean plant response rating. Entry: O=C(CCCCC(F)(F)F)c1c(Br)cccc1Oc1ncc(Cl)cn1
Found: 40

Lookup: Same thing, different compound: O=C(CCCC(F)(F)F)c1c(Br)cccc1Oc1ncc(Cl)cn1
Found: 65

Lookup: // next record O=C(CCCC(F)(F)F)c1c(Oc2ncc(Cl)cn2)cccc1C(F)(F)F
Found: 70

* * *

# System: Italian ryegrass (Lolium multiflorum)
# Protocol Description: Test A preemergence, visual injury rating
# Assay type: in vivo
# Conditions: 125 g ai/ha, 0 to 100 scale (0 no effect, 100 complete control)
Decide using Plant response rating, Ryegrass, Italian: a value greater than or equal to 20 is true, a smaller one is false.

Compound	Target System	Class Name
CC(C)Oc1cccc(Oc2ncc(Cl)cn2)c1C(=O)OCCC(F)(F)F [Compound 115]	Italian ryegrass (Lolium multiflorum)	false
O=C(OCCC(F)(F)F)c1c(Oc2ncc(Cl)cn2)cccc1C(F)(F)F [Compound 113]	Italian ryegrass (Lolium multiflorum)	true
CCCCC(=O)c1c(Oc2ncc(Cl)cn2)cccc1C(F)(F)F [Compound 130]	Italian ryegrass (Lolium multiflorum)	true
N#Cc1cccc(Oc2ncc(Cl)cn2)c1C(=O)CCC(F)(F)C(F)(F)F [Compound 111]	Italian ryegrass (Lolium multiflorum)	false

Lookup: Check this compound for Plant response rating, Ryegrass, Italian at or above 20: CCCC(C#N)c1c(Br)cccc1Oc1ncc(Cl)cn1 (stereo not drawn) [Compound 118]
Found: false

Lookup: Moving on to the next compound: CCCCC(C#N)c1c(Br)cccc1Oc1ncc(Cl)cn1 (stereo not drawn) [Compound 114]
Found: false

Lookup: Then this compound: FC(F)(F)CCCCc1c(Oc2ncc(Cl)cn2)cccc1C1CC1 [Compound 135]
Found: false

* * *

# System: Italian ryegrass (Lolium multiflorum)
# Protocol Description: Test A preemergence, visual injury rating
# Format: in vivo
# Conditions: 31 g ai/ha, 0 to 100 scale, 0 no effect, 100 complete control
Quantity Measured: Plant response rating, Ryegrass, Italian
Could you keep your reply to the number by itself?

Below are worked cases with known answers.
Compound	Plant response rating, Ryegrass, Italian
C=C(Cl)COC(=O)c1c(Br)cccc1Oc1ncc(Cl)cn1 [Compound 2]	0
O=C(OCCCl)c1c(Br)cccc1Oc1ncc(Cl)cn1 [Compound 46]	0
CC(=NOCCC(F)(F)F)c1c(Br)cccc1Oc1ncc(Cl)cn1 [Compound 98]	0
O=C(CCC(F)(F)F)c1c(Br)cccc1Oc1ncc(Cl)cn1 [Compound 92]	30

Lookup: Request - read-out Plant response rating, Ryegrass, Italian | tested on Italian ryegrass (Lolium multiflorum) | compound COc1cccc(Oc2ncc(Cl)cn2)c1C(=O)OCCC(F)(F)F [Compound 112]
Found: 10

* * *

# Test system: wheat (winter wheat, Triticum aestivum)
# Protocol Description: Test C postemergence, plant response rating
# Format: in vivo
# Conditions: Triticum aestivum, post-emergence, 62 g ai/ha, scale 0 to 100 (0 no effect, 100 complete control), read-out: Wheat plant response rating
Parameter plant injury at 62 g/ha: see the listing below.
Don't forget the unit after the number, please.

The examples below pair each entry with its known result.
Molecule	plant injury at 62 g/ha
N#Cc1cccc(Oc2ncc(Cl)cn2)c1CCCCC(F)(F)F	5%
O=C(OCCC(F)(F)F)c1c(Cl)cccc1Oc1ncc(Cl)cn1	0%
C=CCOC(=O)c1c(Br)cccc1Oc1ncc(Cl)cn1	0%

Kindly review the next molecule as well.
Lookup: // fetch wheat (winter wheat, Triticum aestivum) plant injury at 62 g/ha for CC(CC(F)(F)F)OC(=O)c1c(Br)cccc1Oc1ncc(Cl)cn1 (stereo not shown)
Found: 0%

* * *

# Tested on: pigweed (Amaranthus retroflexus)
# Protocol Description: Test A postemergence, visual injury rating
# Assay type: in vivo
# Conditions: 500 g ai/ha, 0 is no effect, 100 is complete control
Pigweed plant response rating (0 to 100 scale) values, listed per item
Response field accepts a number only; no unit should be typed.

Compound	Recorded Number
C=CCSC(=O)c1c(Br)cccc1Oc1ncc(Cl)cn1	100
O=C(OCCCC(F)(F)F)c1c(Oc2ncc(Cl)cn2)cccc1C(F)(F)F	100
O=C(OCC(F)(F)F)c1c(Br)cccc1Oc1ncc(Cl)cn1	100

Lookup: Item N#CCCOC(=O)c1c(Br)cccc1Oc1ncc(Cl)cn1 has what recorded Pigweed plant response rating (0 to 100 scale)?
Found: 100

Lookup: Same read-out for CN(OCC(F)(F)F)C(=O)c1c(Br)cccc1Oc1ncc(Br)cn1 ?
Found: 10

Lookup: Same question, CCCC(=O)c1c(Br)cccc1Oc1ncc(Cl)cn1 this time
Found: 100
